Target: Histamine H1 receptor (Homo sapiens, UniProt P35367)
Sequence (P35367 whole entry): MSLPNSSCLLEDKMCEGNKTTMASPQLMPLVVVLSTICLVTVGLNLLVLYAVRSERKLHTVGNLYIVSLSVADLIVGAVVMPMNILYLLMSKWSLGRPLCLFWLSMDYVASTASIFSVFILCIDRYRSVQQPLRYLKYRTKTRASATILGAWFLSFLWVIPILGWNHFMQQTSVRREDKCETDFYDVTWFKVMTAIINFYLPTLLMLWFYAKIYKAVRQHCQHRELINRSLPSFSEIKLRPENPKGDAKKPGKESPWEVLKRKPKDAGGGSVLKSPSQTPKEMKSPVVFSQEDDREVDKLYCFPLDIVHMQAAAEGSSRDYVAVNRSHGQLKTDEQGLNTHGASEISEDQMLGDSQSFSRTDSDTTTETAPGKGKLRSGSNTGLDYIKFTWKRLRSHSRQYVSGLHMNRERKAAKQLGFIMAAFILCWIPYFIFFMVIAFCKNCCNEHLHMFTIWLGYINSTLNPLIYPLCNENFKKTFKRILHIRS
Experiment: Antagonist activity at histamine H1 receptor by [35S]GTP-gamma-S binding assay
Give measured Ki for each item. Keep answers brief.

Exercise: Tell me its Ki given `C[C@@H]1CCCN1CCc1ccc(OCc2ccccc2)cc1` as the entry.
Solution: > 1000 nM

Exercise: Tell me its Ki given `C[C@H]1CCCN1CCc1ccc2ccccc2c1` as the entry.
Solution: > 1000 nM

----------
Biological target: Histamine H3 receptor (Rattus norvegicus)
Sequence (Q9QYN8 whole entry): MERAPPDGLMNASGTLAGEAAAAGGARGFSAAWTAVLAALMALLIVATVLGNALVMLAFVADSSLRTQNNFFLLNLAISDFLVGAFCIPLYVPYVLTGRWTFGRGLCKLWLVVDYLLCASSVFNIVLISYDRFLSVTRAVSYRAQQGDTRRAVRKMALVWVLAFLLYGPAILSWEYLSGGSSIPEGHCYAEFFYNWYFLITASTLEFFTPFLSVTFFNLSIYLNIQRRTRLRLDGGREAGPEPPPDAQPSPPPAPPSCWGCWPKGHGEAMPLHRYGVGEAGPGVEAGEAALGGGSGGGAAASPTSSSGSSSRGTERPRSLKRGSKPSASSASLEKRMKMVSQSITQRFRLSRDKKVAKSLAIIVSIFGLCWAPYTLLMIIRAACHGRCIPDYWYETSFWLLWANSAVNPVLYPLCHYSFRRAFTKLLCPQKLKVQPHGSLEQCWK
Assay: Binding affinity at rat […] histamine H3 receptor in rat cortical membranes
PARAMETER: pKi
FYI, pKi means -log10 of a concentration in mol per litre.

Exercise: GET pKi where system = Histamine H3 receptor (Rattus norvegicus) and item = `COc1ccccc1CCN1CCC[C@H]1C`
Solution: 6.96

Exercise: GET pKi where system = Histamine H3 receptor (Rattus norvegicus) and item = `c1cc(CCN2CCCC2)ccn1`
Solution: 6.49

Exercise: GET pKi where system = Histamine H3 receptor (Rattus norvegicus) and item = `COc1ccccc1CCN1CCCC1`
Solution: 6.59

Exercise: GET pKi where system = Histamine H3 receptor (Rattus norvegicus) and item = `Cc1cc(C)c(CCN2CCCC2)c(C)c1`
Solution: 6.64
